# Procedure summary: Inhibition of Escherichia coli DNA topoisomerase 4 subunit B using ATP as substrate assessed as release of inorganic phosphate incubated for 10 mins prior to substrate addition measured after 30 mins by spectrophotometric analysis
Recorded Ki values for a group of molecules are listed next.
Your answer should be a plain number; it is taken to be in nM.

>>> recorded_value("CCc1[nH]c2nc(Sc3cncnc3)nc(N3CC[C@@H](N)C3)c2c1Cl")
127

Value of measured Ki for the entry CCc1[nH]c2nc(Sc3ccc4ccc[n+]([O-])c4c3)nc(N3CC[C@@H](N)C3)c2c1Cl : 7

Value of measured Ki for the entry CCc1[nH]c2nc(Sc3cnc4nccnc4c3)nc(N3C[C@H]4CCCN[C@H]4C3)c2c1Cl : 17

Value of measured Ki for the entry CCc1[nH]c2nc(Sc3cnc4nccnc4c3)nc(N3C[C@H]4CN[C@H]4C3)c2c1Cl : 2
